ASSAY COMMENT: CCTE_Mundy_HCI_hNP1_CellTiter: CCTE's Cell Titer-Glo 2 Assay in human neuroprogenitor cells for Viability, Mundy Lab (AID 2284241)
Inconclusive results are not listed. The source made the active and inactive calls. The calls were made as follows: active = hit-call score of the fitted dose curve at least 0.9, where 1 is the maximum; inconclusive = response in the unintended direction; inactive = score below 0.9.
// classify into active, inactive

Field: outcome | Entry: C=CC(=O)OCCC(F)(F)C(F)(F)C(F)(F)C(F)(F)C(F)(F)C(F)(F)C(F)(F)C(F)(F)F
inactive

Field: outcome | Entry: O=C1NS(=O)(=O)c2ccccc21
inactive

Field: outcome | Entry: CC(C)c1c(C(=O)Nc2ccccc2)c(-c2ccccc2)c(-c2ccc(F)cc2)n1CC[C@@H](O)C[C@@H](O)CC(=O)O
active

Field: outcome | Entry: O=P(O)(O)CCC(F)(F)C(F)(F)C(F)(F)C(F)(F)C(F)(F)C(F)(F)C(F)(F)C(F)(F)F
inactive

Field: outcome | Entry: O=P(O)(O)CCC(F)(F)C(F)(F)C(F)(F)C(F)(F)C(F)(F)C(F)(F)F
inactive
